system: human Factor XI mRNA; test: Dose-dependent inhibition and IC50 in HepG2 cells, electroporation (Example 15); format: cell-based; details: electroporation, 10,000.0 nM
In the oligonucleotide strings, read from the 5' end, every base follows the letter of its sugar. An asterisk marks phosphorothioate; unmarked linkages are phosphodiester. Other units and linkages are bracketed, terminal groups are in braces. A string of capitals states the bases alone. e = 2'-O-(2-methoxyethyl) (MOE); [5mC] = 5-methylcytosine; d = 2'-deoxy (DNA)
We begin with a simple list: items and their reported percent inhibition of Factor XI mRNA.
Response body: numeric value in %, unit text excluded.

These recorded examples may help you get a feel for the data.
416856 (antisense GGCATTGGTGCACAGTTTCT; 5-10-5 gapmer, wing sugar chemistry not given here, further chemistry not given here) [compound 416856] | 83
445498 (antisense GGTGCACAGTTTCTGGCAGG; 6-8-6 gapmer chemistry, chemistry not fully specified) [compound 445498] | 58
445522 (antisense eG*e[5mC]*eA*e[5mC]*eA*dG*dT*dT*dT*d[5mC]*dT*dG*dG*e[5mC]*eA*eG*eG*e[5mC]) [compound 445522] | 74

// field: percent inhibition of Factor XI mRNA; key: 416858 (antisense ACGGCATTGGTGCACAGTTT; 5-10-5 gapmer, wing sugar chemistry not given here, further chemistry not given here) [compound 416858] ; value = 70

// field: percent inhibition of Factor XI mRNA; key: 445531 (antisense eG*eG*e[5mC]*eA*eT*dT*dG*dG*dT*dG*d[5mC]*dA*d[5mC]*eA*eG*eT*eT*eT) [compound 445531] ; value = 77

---

We begin with a simple list: items and their reported Body weight.
assay: Cynomolgus monkeys: body and organ weights (Example 29); format: in vivo; conditions: escalating doses 5, 10, 25 mg/kg s.c., day 1
In the oligonucleotide strings, read from the 5' end, every base follows the letter of its sugar. An asterisk marks phosphorothioate; unmarked linkages are phosphodiester. Other units and linkages are bracketed, terminal groups are in braces. A string of capitals states the bases alone. e = 2'-O-(2-methoxyethyl) (MOE); [5mC] = 5-methylcytosine; d = 2'-deoxy (DNA)
Respond with a number, then the unit of measure.

These recorded examples may help you get a feel for the data.
ISIS 417002: gapmer of Table 8 (antisense eG*eG*dT*dG*d[5mC]*dA*d[5mC]*dA*dG*dT*dT*dT*d[5mC]*dT*dG*eG*e[5mC]*eA*eG*eG) | 2640 g
ISIS 416850: gapmer of Table 8 (antisense eT*eG*e[5mC]*eA*e[5mC]*dA*dG*dT*dT*dT*d[5mC]*dT*dG*dG*d[5mC]*eA*eG*eG*e[5mC]*e[5mC]) | 2572 g
ISIS 416858: gapmer of Table 8 (antisense eA*e[5mC]*eG*eG*e[5mC]*dA*dT*dT*dG*dG*dT*dG*d[5mC]*dA*d[5mC]*eA*eG*eT*eT*eT) | 2912 g
ISIS 416838: gapmer of Table 6 (antisense eG*e[5mC]*eA*eA*e[5mC]*d[5mC]*dG*dG*dG*dA*dT*dG*dA*dT*dG*eA*eG*eT*eG*e[5mC]) | 2720 g

Consider now this further substance.
// field: Body weight; key: ISIS 416864: gapmer of Table 8 (antisense eG*eG*e[5mC]*eA*eG*d[5mC]*dG*dG*dA*d[5mC]*dG*dG*d[5mC]*dA*dT*eT*eG*eG*eT*eG) ; value = 2890 g

Entry source: patent US20120083522A1
